# tested_target: PEG-3 (UniProt Q6IN02)
# Sequence (Q6IN02 whole entry, looked up): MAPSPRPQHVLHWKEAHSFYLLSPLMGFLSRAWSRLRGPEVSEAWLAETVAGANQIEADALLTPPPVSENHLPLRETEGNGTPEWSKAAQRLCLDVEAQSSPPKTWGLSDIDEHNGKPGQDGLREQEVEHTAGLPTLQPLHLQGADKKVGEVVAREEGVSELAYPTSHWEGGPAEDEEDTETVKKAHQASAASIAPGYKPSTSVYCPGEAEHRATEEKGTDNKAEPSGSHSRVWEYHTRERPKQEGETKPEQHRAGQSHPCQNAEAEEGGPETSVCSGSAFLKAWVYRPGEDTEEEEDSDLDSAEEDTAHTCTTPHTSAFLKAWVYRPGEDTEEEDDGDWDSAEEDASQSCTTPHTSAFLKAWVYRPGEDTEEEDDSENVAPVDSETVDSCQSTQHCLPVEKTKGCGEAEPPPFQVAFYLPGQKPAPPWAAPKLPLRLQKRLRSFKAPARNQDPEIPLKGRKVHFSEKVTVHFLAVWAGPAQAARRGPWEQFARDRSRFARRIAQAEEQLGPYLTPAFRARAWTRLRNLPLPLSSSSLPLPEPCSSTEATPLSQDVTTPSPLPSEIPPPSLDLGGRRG
# method: Peg3 promoter luciferase inhibitors, potency, dose response, cell-based, HeLa, CREF/GAPDH counter-screen panel (AID 624167)
# assay_context: HeLa PEG-Prom luciferase reporter, overnight, CREF/GAPDH counter-screens, mean of runs
IC50 overview

# get_value(readout='IC50', item= `Cc1cc(N2CCN(C)CC2)ccc1NC(=O)c1c2c(nc3ccccc13)CCN(Cc1ccccc1)C2` ) 8.92 µM

Moving on to the next compound: COc1ccc(C(NC(C)=O)c2ccc3cccnc3c2O)c(OC)c1 (stereo unspecified) 5.33 µM

Also need O=S(=O)(NC1CC(NS(=O)(=O)OCC(Cl)(Cl)Cl)C2CCCCC12)OCC(Cl)(Cl)Cl (stereo unspecified) , thanks. 11.4 µM

Here is the next compound: `O=C(Cn1ncc(Cl)c(Cl)c1=O)N1CCN(Cc2ccccc2)CC1` 14 µM

Subsequent entry: `CNC(=O)c1ccsc1NC(=O)c1ccc(S(=O)(=O)N2CCc3ccccc32)cc1` 16.5 µM

Another compound to look at: `O=C(CSc1nc(Nc2ccccc2)nc(N2CCOCC2)n1)Nc1cc(Cl)ccc1O` 13.7 µM

---

Reported values of IC50 for individual entries
# Test system: PEG-3
# method: Peg3 promoter luciferase inhibitors, potency, dose response, cell-based, HeLa, CREF/GAPDH counter-screen panel (AID 624167)
# assay_context: HeLa PEG-Prom luciferase reporter, overnight, CREF/GAPDH counter-screens, run 1, dose range 1, individual replicate IC50 per panel
Expressed in µM, but write only the number.

Solved entries:
| molecule | data_value |
| --- | --- |
| CCCC(=O)NC(c1ccc(N(C)C)cc1)c1ccc2cccnc2c1O (configuration not stated) | 2.74 |
| Cc1ccc(CC2(OCCN(C)C)CCC(C(C)(C)C)CC2)cc1 (configuration not stated) | 19.1 |
| OC1(c2ccc(Cl)c(Cl)c2)C[n+]2ccccc2N1Cc1ccccc1 (configuration not stated) | 16 |
| Cc1cc(C)c2c(N)c(C(=O)Nc3ncc(C)s3)sc2n1 | 1.09 |
| O=S(=O)(/N=C(/Sc1ccccc1)c1ccccc1)c1ccccc1 | 28.9 |
| COc1ccc(OC)c(-c2cc(C(=O)N3CCN(c4ncccn4)CC3)c3ccccc3n2)c1 | 35 |
| CCOC(=O)c1ccc(NC(=O)C2CCCN(S(=O)(=O)c3ccc(F)cc3)C2)cc1 (configuration not stated) | 20.9 |
| CN(C)C=NC(=O)c1[nH]c2ccc(Cl)cc2c1-c1ccccc1 | 18 |

Item under review: `O=C(N/N=C/c1ccc(Cl)c([N+](=O)[O-])c1)c1cc(-c2ccc3c4c(cccc24)CC3)n[nH]1` . Reported IC50? 11.2

One more molecule: `C=CCN=C1NN=C(c2cc(C)n(CC=C)c2C)CS1` 11.5

---

# Tested on: Rat fibroblasts (CREF)
# method: Peg3 promoter luciferase inhibitors, potency, dose response, cell-based, HeLa, CREF/GAPDH counter-screen panel (AID 624167)
# assay_context: CREF/GAPDH counter-screens, run 1, dose range 1, individual replicate IC50 per panel
pIC50: −log10 of the molar value.
Label scheme for pIC50: lower than 5 is False, 5 and above is True.

| molecule | assigned_class |
| --- | --- |
| CCCC(=O)NC(c1ccc(C(C)C)cc1)c1ccc2cccnc2c1O (stereo not drawn) | False |

Could you please find out whether CS(=O)(=O)Nc1cccc(NC(=O)C2Cc3c(-c4ccccc4)ccnc3O2)c1 (stereo not drawn) has pIC50 that meets 5 or exceeds it? False

Follow-up item: `Cc1ccc(-n2c(N)c(C(=O)Nc3c(C)n(C)n(-c4ccccc4)c3=O)c3nc4ccccc4nc32)cc1` False

Also need `Cc1ccc(C(=O)O/N=C(\N)c2ccccn2)cc1` , thanks. True

Try `COc1ccc(-c2nc(-c3ccccn3)no2)cc1` next. True

Let us now turn to `c1ccc(-c2nc(-c3ccccn3)no2)cc1` True

Next entry: `COc1cc2nc(CN3CC=C(c4ccccc4)CC3)[nH]c(=O)c2cc1OC` False

// same read-out, input: `Clc1cccc(-c2nc(-c3ccccn3)no2)c1` True
